// provenance: paper PMC7694773

Each record here notes measured melting point.

Some solved entries appear below for comparison.
Compound | melting point
O=[N+]([O-])c1cccc(C=Nn2c(S)nnc2COc2ccc3ccccc3c2)c1 [Compound 9c] | 200 to 202 °C
Nc1ncc(Sc2nnc(COc3ccc4ccccc4c3)n2N=Cc2ccccc2O)s1 [Compound 12b] | 77 to 78 °C
COc1ccc(C=Nn2c(COc3ccc4ccccc4c3)nnc2Sc2cnc(N)o2)cc1 [Compound 11d] | 70 to 71 °C

Asked: Consider the compound shown here: Sc1nnc(COc2ccc3ccccc3c2)n1N=Cc1ccccc1 [Compound 9a] What is its recorded melting point?
Given back: 184 to 186 °C

###

- Target: human recombinant COX-2 (Homo sapiens)
- Construct: purchased Cayman Chemical 560131
- Sequence (P35354 18-604): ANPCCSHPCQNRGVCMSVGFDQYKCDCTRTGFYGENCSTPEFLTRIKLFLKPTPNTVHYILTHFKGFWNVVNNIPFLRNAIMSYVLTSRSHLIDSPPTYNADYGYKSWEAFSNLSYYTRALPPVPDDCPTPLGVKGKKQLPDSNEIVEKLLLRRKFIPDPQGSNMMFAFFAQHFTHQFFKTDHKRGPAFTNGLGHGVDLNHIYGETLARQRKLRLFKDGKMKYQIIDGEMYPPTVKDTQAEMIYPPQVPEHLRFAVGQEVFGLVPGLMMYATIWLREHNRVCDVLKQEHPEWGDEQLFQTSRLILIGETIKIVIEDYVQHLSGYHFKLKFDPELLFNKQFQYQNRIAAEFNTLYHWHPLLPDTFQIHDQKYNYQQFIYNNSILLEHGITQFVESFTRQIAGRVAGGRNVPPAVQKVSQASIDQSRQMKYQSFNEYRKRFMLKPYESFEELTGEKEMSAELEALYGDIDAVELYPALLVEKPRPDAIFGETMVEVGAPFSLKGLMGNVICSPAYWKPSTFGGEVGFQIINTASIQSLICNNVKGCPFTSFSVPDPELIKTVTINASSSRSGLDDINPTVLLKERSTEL
- Assay Summary: In vitro COX-2 inhibition, enzyme immunoassay kit (Cayman item no. 560131)
- Assay type: biochemical
- Condition Parameters: human recombinant COX-2; mean of two determinations; read-out: IC50 COX-2
pIC50: −log10 of the molar value.
Recorded Metric: pIC50

Molecule | Target | pIC50
Nc1ncc(Sc2nnc(COc3ccc4ccccc4c3)n2N=Cc2ccccc2)o1 [Compound 11a] | human recombinant COX-2 (Homo sapiens) | 7.10
O=C(CCl)Sc1nnc(COc2ccc3ccccc3c2)n1N=Cc1ccccc1 [Compound 10a] | human recombinant COX-2 (Homo sapiens) | 6.89

P = COc1ccc(C=Nn2c(S)nnc2COc2ccc3ccccc3c2)cc1
Q = Nc1ncc(Sc2nnc(COc3ccc4ccccc4c3)n2N=Cc2cccc([N+](=O)[O-])c2)o1 [Compound 11c]
R = Nc1ncc(Sc2nnc(COc3ccc4ccccc4c3)n2N=Cc2ccccc2O)o1 [Compound 11b]
Asked: # rank by pIC50, ascending (min first) // ordering of labels required in reply
Given back: P, R, Q
